# Tested on: HEK293T cells
Ends that are not written are not given here.
I'd appreciate it if you marked entries y when CC50 vs HEK293T cells is lower than 10 µM and n when it is not.

>>> cat("WLGSALKIGAKLL [UniprotKB-2]")
"y"
>>> cat("KWGKLFSAGKKLLKKAKKL [Arachnoserver-4]")
"n"
>>> cat("RKFNWGKLFKSAKKLYKTGKKLSKNKNVRKALKFGK [Arachnoserver-7]")
"y"
>>> cat("RKFKWGSFKKILSAGKKLFKKAKKLSKNKNFKKALK [Arachnoserver-6]")
"y"
>>> cat("RRVKRFKKFFMKLKKSVKKRVMKFFK [UniprotKB-5]")
"y"
>>> cat("GKWLISSLVAKHL [UniprotKB-6]")
"n"
>>> cat("RGLAKLLKIGLKSFARVLKK [Arachnoserver-12]")
"y"
>>> cat("KFLARLVFRKFILL [UniprotKB-13]")
"n"
>>> cat("KWLKAMKSIAKFIAKKQMKKHL [Arachnoserver-32]")
"y"
>>> cat("FLKKIWRSKLVKRL [UniprotKB-9]")
"n"
>>> cat("ARKFKWGKLFSAGKKLLKKAKKLSKNK [Arachnoserver-11]")
"y"
>>> cat("KLSGISKVLRAIAKFFK [Arachnoserver-28]")
"y"
>>> cat("KYRRGVSPWLKKELVRLHNNLRSKVAGGK [Arachnoserver-31]")
"n"

----------
# Tested on: P. aeruginosa PA14
# assay-setup: PA14, 24 h
Ends that are not written are not given here.
value-kind: Minimal Inhibitory Concentration, P. aeruginosa PA14 (-) (µmol/L)

>>> numeric_readout("RKFNWGKLFKSAKKLYKTGKKLSKNKNVRKALKFGK [Arachnoserver-7]")
4
>>> numeric_readout("KLLKIGLKSFARVLKKVL [Arachnoserver-1]")
8
>>> numeric_readout("KNKRFIRNLRSNLYQKIIKSTKSLL [Arachnoserver-9]")
16
>>> numeric_readout("SKKQIRLYLLKYYGKKLFKKRPK [Arachnoserver-19]")
16
>>> numeric_readout("VNSFKIGGFIKKLWRSKLAKKLRAK [UniprotKB-19]")
16
>>> numeric_readout("FIKKLWRSKLAKKLRAKGRELLK [UniprotKB-17]")
16

----------
Ends that are not written are not given here.
For HEK293T cells, measured SIcytotoxicity is reported for the entries below.
value-kind: SIcytotoxicity

>>> numeric_readout("KIKWLKAMKSIAKFIAKK [Arachnoserver-5]")
7.0
>>> numeric_readout("SFKKILSAGKKLFKKAKKL [Arachnoserver-29]")
4.3
>>> numeric_readout("RRVKRFKKFFMKLKKSVKKRVMKFFK [UniprotKB-5]")
1.1
>>> numeric_readout("KIKWFKTMKSLAKFLAK [Arachnoserver-33]")
8.0
>>> numeric_readout("KLLKIGLKSFARVLKKVL [UniprotKB-1]")
2.5
>>> numeric_readout("QPRRVKRFKKFFKKLKNSVKKRAKKF [ISOB-7]")
4.0
>>> numeric_readout("KRFIRNLRSNLYQKIIKSTKSLLDLREKI [Arachnoserver-17]")
4.1
>>> numeric_readout("FLKKIWRSKLVKRL [UniprotKB-9]")
1.3
>>> numeric_readout("KKQIRLYLLKYYGKKSSSKSVRKIVISK [Arachnoserver-20]")
2.8
>>> numeric_readout("KYRRGVSPWLKKELVRLHNNLRSKVAGGK [Arachnoserver-31]")
3.2
>>> numeric_readout("KLWNSKLARKIRTKGLKYVKNFAK [UniprotKB-3]")
1.5
>>> numeric_readout("KNKRFIRNLRSNLYQKIIKSTKSLL [UniprotKB-14]")
5.7
>>> numeric_readout("KFLARLVFRKFILL [UniprotKB-13]")
13.4
>>> numeric_readout("RQEYPTKRLRAKMLNSKFIKLIKR [Conoserver-12]")
5.8
>>> numeric_readout("KWLGKLGVILSHL [UniprotKB-15]")
1.4
>>> numeric_readout("SKKQIRLYLLKYYGKKLFKKRPK [Arachnoserver-19]")
2.1
>>> numeric_readout("VNSFKIGGFIKKLWRSKLAKKLRAK [UniprotKB-19]")
10.2
>>> numeric_readout("KRLKGFAKKLWNSKLARKIRTKGLKYVKNFAK [UniprotKB-7]")
3.7
>>> numeric_readout("KRLRAKMLNSKFIKLIKR [Conoserver-1]")
5.2
>>> numeric_readout("LTKWLGKLGVIL [UniprotKB-11]")
4.4
>>> numeric_readout("LLHFSIWRSTVLRK [ISOB-4]")
9.7
>>> numeric_readout("RRVKRFKKFFKKL [ISOB-6]")
6.5
>>> numeric_readout("KLLKIGLKSFARVLKKVL [Arachnoserver-1]")
6.6
>>> numeric_readout("KKWRELSRLSRVLQIL [Conoserver-14]")
7.3
>>> numeric_readout("KLHGLLTRRSLKNFWKRNLYLR [Conoserver-6]")
7.9

----------
# Tested on: human red blood cells
# assay-setup: pH 7.4
Ends that are not written are not given here.
value-kind: HC50

>>> result("RRVKRFKKFFRKLKKSVKKRAKEFFK [ISOB-1]")
2001.0
>>> result("FIKKLWRSKLAKKLRAKGRELLK [UniprotKB-17]")
"4.224e+042"
>>> result("RRVKRFKKFFKKL [ISOB-6]")
"1.085e+083"
>>> result("KYRRGVSPWLKKELVRLHNNLRSKVAGGK [Arachnoserver-31]")
1392.0
>>> result("SKKQIRLYLLKYYGKKLFKKRPK [Arachnoserver-19]")
163.3
>>> result("PLWKRRRFLSMLKARAKR [Conoserver-4]")
707.7
>>> result("KRRRASPLWKRRRFLSMLKARAK [Conoserver-2]")
1570.0
>>> result("GKWLISSLVAKHL [UniprotKB-6]")
686.0
>>> result("KNKRFIRNLRSNLYQKIIKSTKSLL [Arachnoserver-9]")
4947.0
>>> result("KRKGYLRLVPEERIWQKGLWWLRRLETDSDKLQK [ISOB-3]")
"1.085e+083"
>>> result("RRASPLWKRRRFLSMLKARAKRTGYK [Conoserver-3]")
459.2
>>> result("KIKWFKTMKSLAKFLAK [Arachnoserver-33]")
144.1

----------
Ends that are not written are not given here.
Let's go through some recorded SIcytotoxicity values for HEK293T cells together.
value-kind: SIcytotoxicity

>>> numeric_readout("KWGKLFSAGKKLLKKAKKL [Arachnoserver-4]")
2.4
>>> numeric_readout("RFGSFLKKVWKSKLAKKL [UniprotKB-20]")
6.6
>>> numeric_readout("KLSGISKVLRAIAKFFK [Arachnoserver-28]")
0.8
>>> numeric_readout("KRRRASPLWKRRRFLSMLKARAK [UniprotKB-10]")
1.3
>>> numeric_readout("RGLAKLLKIGLKSFARVLKK [Arachnoserver-12]")
2.1
>>> numeric_readout("KWLKAMKSIAKFIAKKQMKKHL [Arachnoserver-32]")
1.9

----------
# Tested on: human red blood cells
# assay-setup: pH 7.4
Ends that are not written are not given here.
Please assign -1 whenever HC50 is at or above 50, and 1 whenever it is below.

>>> cat("RRVKRFKKFFMKL [UniprotKB-18]")
-1
>>> cat("KRLRAKMLNSKFIKLIKR [Conoserver-1]")
-1
>>> cat("KFSVFSKILRSIAKVF [Arachnoserver-18]")
-1
>>> cat("RKFNWGKLFKSAKKLYKTGKKLSKNKNVRKALKFGK [Arachnoserver-7]")
1
>>> cat("KLKKLRKWIYRIV [UniprotKB-8]")
-1
>>> cat("LLHFSIWRSTVLRK [ISOB-4]")
-1
>>> cat("KFSVFSKILRSIAKVFKGVGKVRK [Arachnoserver-27]")
1

----------
Notes on SIcytotoxicity obtained with HEK293T cells.
Ends that are not written are not given here.
value-kind: SIcytotoxicity

>>> result("RKRRRFISMLKARAKRR [Conoserver-15]")
0.7
>>> result("KFSVFSKILRSIAKVFKGVGKVRK [Arachnoserver-27]")
2.0
>>> result("RRVKRFKKFFMKL [UniprotKB-18]")
3.1
>>> result("ARKFKWGKLFSAGKKLLKKAKKLSKNK [Arachnoserver-11]")
2.2
>>> result("RKFKWGKLFSTAKKLYKKGKKLSKNKNFKKALK [UniprotKB-12]")
11.9
>>> result("RHRIVRTYIAKFGLK [ISOB-2]")
7.5
>>> result("RKFKWGKLFSTAKKLYKKGKKLSK [UniprotKB-16]")
5.9
>>> result("RKFKWGSFKKILSAGKKLFKKAKKLSKNKNFKKALK [Arachnoserver-6]")
1.3
>>> result("RKFKWGSFKKILSAGKKLFKKAKKLSK [Arachnoserver-2]")
9.9

----------
# Tested on: P. aeruginosa PA14
# assay-setup: PA14, 24 h
Ends that are not written are not given here.
value-kind: Minimal Inhibitory Concentration, P. aeruginosa PA14 (-) (µmol/L)

>>> numeric_readout("KLHGLLTRRSLKNFWKRNLYLR [Conoserver-6]")
32
>>> numeric_readout("RKFKWGKLFSTAKKLYKKGKKLSKNKNFKKALK [UniprotKB-12]")
4
>>> numeric_readout("KYRRGVSPWLKKELVRLHNNLRSKVAGGK [Arachnoserver-31]")
64
>>> numeric_readout("KIKWLKAMKSIAKFIAKK [Arachnoserver-5]")
2
>>> numeric_readout("RKFKWGSFKKILSAGKKLFKKAKKLSKNKNFKKALK [Arachnoserver-6]")
4
>>> numeric_readout("KFSVFSKILRSIAKVF [Arachnoserver-18]")
16
>>> numeric_readout("RGLAKLLKIGLKSFARVLKK [Arachnoserver-12]")
8
>>> numeric_readout("RFGSFLKKVWKSKLAKKL [UniprotKB-20]")
16
>>> numeric_readout("KWLKAMKSIAKFIAKKQMKKHL [Arachnoserver-32]")
16
>>> numeric_readout("RRVKRFKKFFRKLKKSVKKRAKEFFK [ISOB-1]")
8
>>> numeric_readout("RKFKWGSFKKILSAGKKLFKKAKKLSK [Arachnoserver-2]")
4

Values compiled from paper PMC12254355.
